Entries and their measured IC50 follow.
TGT: UniProtKB Q9F663
Sequence (Q9F663 25-293 limits assumed): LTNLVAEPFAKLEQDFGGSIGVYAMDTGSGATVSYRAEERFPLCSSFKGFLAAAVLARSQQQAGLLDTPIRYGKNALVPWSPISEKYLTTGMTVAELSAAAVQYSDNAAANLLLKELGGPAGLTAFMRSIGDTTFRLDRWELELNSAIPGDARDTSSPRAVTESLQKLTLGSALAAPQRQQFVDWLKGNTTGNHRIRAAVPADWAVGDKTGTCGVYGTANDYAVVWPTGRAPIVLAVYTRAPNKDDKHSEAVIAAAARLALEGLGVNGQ
PROCEDURE TEXT: β-lactamase enzyme inhibition assay, KPC-2 (imipenem substrate)

{"COMPOUND": "CCC(F)(F)C(=O)N[C@H]1Cc2cccc(C(=O)O)c2OB1O [Example 1]", "IC50": "100 to 1000 nM"}
{"COMPOUND": "CC(F)(F)CCC(=O)N[C@H]1Cc2cccc(C(=O)O)c2OB1O [Example 85]", "IC50": "< 100 nM"}
{"COMPOUND": "O=C(CCCC(F)(F)F)N[C@H]1Cc2cccc(C(=O)O)c2OB1O [Example 2]", "IC50": "< 100 nM"}
{"COMPOUND": "CC(F)C(=O)N[C@H]1Cc2cccc(C(=O)O)c2OB1O (mixture of isomers) [Example 102]", "IC50": "< 100 nM"}
{"COMPOUND": "CC(F)(F)CC(=O)N[C@H]1Cc2cccc(C(=O)O)c2OB1O [Example 3]", "IC50": "100 to 1000 nM"}

---

TGT: OXA-48 (Klebsiella pneumoniae)
Sequence (Q6XEC0 23-265 limits assumed): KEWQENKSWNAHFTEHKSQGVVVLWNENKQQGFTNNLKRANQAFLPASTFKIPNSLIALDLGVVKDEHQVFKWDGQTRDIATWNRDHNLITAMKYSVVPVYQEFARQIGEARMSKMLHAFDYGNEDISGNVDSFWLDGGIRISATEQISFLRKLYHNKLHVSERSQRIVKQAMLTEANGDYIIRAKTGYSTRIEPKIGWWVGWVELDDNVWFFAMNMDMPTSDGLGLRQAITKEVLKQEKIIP
PROCEDURE TEXT: β-lactamase enzyme inhibition assay, OXA-48 (nitrocefin substrate)
pIC50: −log10 of the molar value.
Entries and their measured pIC50 follow.

{"COMPOUND": "CC(F)(F)CC(=O)N[C@H]1Cc2cccc(C(=O)O)c2OB1O [Example 3]", "TGT": "OXA-48 (Klebsiella pneumoniae)", "pIC50": "6.00 to 7.00"}
{"COMPOUND": "CCC(F)(F)C(=O)N[C@H]1Cc2cccc(C(=O)O)c2OB1O [Example 1]", "TGT": "OXA-48 (Klebsiella pneumoniae)", "pIC50": "6.00 to 7.00"}
{"COMPOUND": "CC(F)C(=O)N[C@H]1Cc2cccc(C(=O)O)c2OB1O (mixture of isomers) [Example 102]", "TGT": "OXA-48 (Klebsiella pneumoniae)", "pIC50": "6.00 to 7.00"}
{"COMPOUND": "O=C(CCCC(F)(F)F)N[C@H]1Cc2cccc(C(=O)O)c2OB1O [Example 2]", "TGT": "OXA-48 (Klebsiella pneumoniae)", "pIC50": "6.00 to 7.00"}
{"COMPOUND": "CC(F)(F)CCC(=O)N[C@H]1Cc2cccc(C(=O)O)c2OB1O [Example 85]", "TGT": "OXA-48 (Klebsiella pneumoniae)", "pIC50": "5.00 to 6.00"}
